The values you see were collected from ChEMBL document CHEMBL2407027.

target: Beta-glucuronidase (Bos taurus) (UniProt A3KMY8); assay: Inhibition of bovine liver beta-glucuronidase at 1000 uM
Sequence (A3KMY8 as listed by the source): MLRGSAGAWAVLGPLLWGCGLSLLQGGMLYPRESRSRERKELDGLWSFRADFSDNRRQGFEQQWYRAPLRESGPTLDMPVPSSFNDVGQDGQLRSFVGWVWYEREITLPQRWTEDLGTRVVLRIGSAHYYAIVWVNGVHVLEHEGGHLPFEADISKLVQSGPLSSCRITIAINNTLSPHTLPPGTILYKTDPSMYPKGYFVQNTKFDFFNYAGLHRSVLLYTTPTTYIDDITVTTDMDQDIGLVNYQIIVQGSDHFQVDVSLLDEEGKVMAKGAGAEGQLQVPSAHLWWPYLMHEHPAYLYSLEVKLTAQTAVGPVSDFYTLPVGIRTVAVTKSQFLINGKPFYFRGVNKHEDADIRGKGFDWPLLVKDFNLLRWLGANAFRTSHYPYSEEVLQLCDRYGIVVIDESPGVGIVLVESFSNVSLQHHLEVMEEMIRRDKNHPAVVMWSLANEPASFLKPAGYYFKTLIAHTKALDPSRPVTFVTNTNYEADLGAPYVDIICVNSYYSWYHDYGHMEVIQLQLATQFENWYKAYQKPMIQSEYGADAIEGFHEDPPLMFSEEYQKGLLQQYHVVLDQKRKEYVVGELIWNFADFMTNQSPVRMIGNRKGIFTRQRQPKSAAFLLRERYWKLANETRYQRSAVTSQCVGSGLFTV
The following compounds are shown together with reported inhibition values.
API: value field is a number in %; no unit string.

O[C@@H]1[C@H](O)[C@H]2[C@@H](O)CN2C[C@H]1O = 7.8
OC[C@H](O)[C@@H]1NC[C@@H]1O = 7.4
O[C@H]1CCCN2C[C@H](O)[C@H]12 = 0
OC[C@H]1NC[C@@H](O)[C@H](O)[C@@H]1O = 7.4

# evaluate next
[Q] Need inhibition of "O=C1CC[C@H](O)[C@H]2[C@@H](O)CN12" , thanks.
[A] 4.2

----------
biological target: UniProt:Q2KHZ8; test: Inhibition of bovine liver beta-glucosidase at 1000 uM
Sequence (Q2KHZ8 whole entry): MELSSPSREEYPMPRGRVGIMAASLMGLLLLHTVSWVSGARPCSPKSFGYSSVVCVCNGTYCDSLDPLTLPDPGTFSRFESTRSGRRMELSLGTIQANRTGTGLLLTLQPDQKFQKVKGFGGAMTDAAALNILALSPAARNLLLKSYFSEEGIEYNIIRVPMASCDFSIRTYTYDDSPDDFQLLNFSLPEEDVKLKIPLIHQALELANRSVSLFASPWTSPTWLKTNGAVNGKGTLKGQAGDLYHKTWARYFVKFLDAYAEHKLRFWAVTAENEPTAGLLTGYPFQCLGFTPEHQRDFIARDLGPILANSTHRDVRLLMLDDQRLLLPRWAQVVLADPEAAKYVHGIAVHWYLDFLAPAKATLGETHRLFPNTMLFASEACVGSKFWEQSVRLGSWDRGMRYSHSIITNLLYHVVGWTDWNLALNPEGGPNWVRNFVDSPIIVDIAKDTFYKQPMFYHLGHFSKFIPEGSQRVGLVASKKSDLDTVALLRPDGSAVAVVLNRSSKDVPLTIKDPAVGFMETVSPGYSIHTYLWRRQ
MEASURED ENDPOINT: inhibition
Quick note: unit goes after the number.

# annotated cases, reported inhibition shown
OC[C@H]1NC[C@@H](O)[C@H](O)[C@@H]1O = 10.9%
O=C1CC[C@H](O)[C@H]2[C@@H](O)CN12 = 14.9%

[Q] Need inhibition of "O[C@H]1CCCN2C[C@H](O)[C@H]12" , thanks.
[A] 9.7%

[Q] Next molecule up: "O[C@@H]1[C@H](O)[C@H]2[C@@H](O)CN2C[C@H]1O"
[A] 18.9%

----------
The following compounds are shown together with reported inhibition values.
organism: Rattus norvegicus; assay: Inhibition of rat intestinal alpha-glucosidase at 1000 uM

O=C1CC[C@H](O)[C@H]2[C@@H](O)CN12 = 25.2%
OC[C@H]1NC[C@@H](O)[C@H](O)[C@@H]1O = 24.2%
O[C@@H]1[C@H](O)[C@H]2[C@@H](O)CN2C[C@H]1O = 30.3%

[Q] Need inhibition of "O[C@H]1CCCN2C[C@H](O)[C@H]12" , thanks.
[A] 14.3%

----------
The following compounds are shown together with reported inhibition values.
tested on: Helix pomatia; test: Inhibition of snail beta-mannosidase at 1000 uM
API: value field is a number in %; no unit string.

# annotated cases, reported inhibition shown
OC[C@H](O)[C@@H]1NC[C@@H]1O = 0
O[C@H]1CCCN2C[C@H](O)[C@H]12 = 0
O=C1CC[C@H](O)[C@H]2[C@@H](O)CN12 = 0
O[C@@H]1[C@H](O)[C@H]2[C@@H](O)CN2C[C@H]1O = 0

# evaluate next
[Q] Need inhibition of "OC[C@H]1NC[C@@H](O)[C@H](O)[C@@H]1O" , thanks.
[A] 0

----------
The following compounds are shown together with reported pIC50 values.
experiment: Inhibition of rat beta-galactosidase
The read-out pIC50 is expressed as -log10 of concentration in moles per litre.

OC[C@H](O)[C@@H]1NC[C@@H]1O = 4.15

# evaluate next
[Q] Need pIC50 of "O[C@@H]1[C@H](O)[C@H]2[C@@H](O)CN2C[C@H]1O" , thanks.
[A] 3.38

----------
test system: Escherichia coli; assay: Inhibition of Escherichia coli beta-glucuronidase at 1000 uM
MEASURED ENDPOINT: inhibition (%)
API: value field is a number in %; no unit string.

O=C1CC[C@H](O)[C@H]2[C@@H](O)CN12 = 8.9

[Q] Need inhibition of "OC[C@H]1NC[C@@H](O)[C@H](O)[C@@H]1O" , thanks.
[A] 0

[Q] Next compound up: "O[C@H]1CCCN2C[C@H](O)[C@H]12"
[A] 13.2

[Q] Next compound up: "O[C@@H]1[C@H](O)[C@H]2[C@@H](O)CN2C[C@H]1O"
[A] 0

[Q] Next compound up: "OC[C@H](O)[C@@H]1NC[C@@H]1O"
[A] 0
